Reported Relative Blockade of IL-13 Binding IC50 is given for each of the following binders.
# Tested on: T1, hIL-4Rα on cells (human, UniProt P24394 26-825)
# T1 sequence: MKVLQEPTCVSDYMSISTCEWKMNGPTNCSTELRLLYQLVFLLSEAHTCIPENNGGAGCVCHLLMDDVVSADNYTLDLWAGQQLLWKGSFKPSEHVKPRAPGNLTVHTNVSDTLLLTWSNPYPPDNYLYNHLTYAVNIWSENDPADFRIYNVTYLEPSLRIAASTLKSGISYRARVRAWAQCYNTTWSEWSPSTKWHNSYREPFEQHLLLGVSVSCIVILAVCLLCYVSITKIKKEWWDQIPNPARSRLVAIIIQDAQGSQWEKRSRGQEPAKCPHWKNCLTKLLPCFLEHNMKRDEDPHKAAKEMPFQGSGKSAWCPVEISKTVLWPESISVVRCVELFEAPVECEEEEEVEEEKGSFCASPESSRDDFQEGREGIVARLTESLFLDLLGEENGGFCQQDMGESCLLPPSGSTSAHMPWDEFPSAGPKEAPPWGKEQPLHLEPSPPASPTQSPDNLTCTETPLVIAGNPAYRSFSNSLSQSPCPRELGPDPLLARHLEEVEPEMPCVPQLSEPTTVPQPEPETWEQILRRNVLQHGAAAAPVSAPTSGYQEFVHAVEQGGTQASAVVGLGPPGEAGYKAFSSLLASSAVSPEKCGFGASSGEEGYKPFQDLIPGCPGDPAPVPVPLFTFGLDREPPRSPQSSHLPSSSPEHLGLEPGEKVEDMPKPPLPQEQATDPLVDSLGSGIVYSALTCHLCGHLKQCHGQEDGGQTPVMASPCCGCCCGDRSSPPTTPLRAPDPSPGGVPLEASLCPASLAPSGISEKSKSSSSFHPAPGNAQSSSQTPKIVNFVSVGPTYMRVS
# Assay summary: FACS on HEK293 cells, competitor biotin-hIL-13;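 note: stably transduced cells co-expressing both receptor chains, stained cold, with cell-bound signal read as mean fluorescence intensity by flow cytometry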
Measured parameter: Relative Blockade of IL-13 Binding IC50

Binder	Observed
Construct 29 (mAb437) (antibody, IgG4, V domains shown, VH/VL only) VH: EVQLVESGGGLEQPGGSLRLSCAGSGFTFRDFAMTWVRQAPGKGLEWVSSISGSGGNIYYADSVKGRFTISRDNSKNTLYLQMNSLRAEDTAVYYCAKDRLSVTVRPRYYGLDVWGQGTTVTVSS VL: DIVMTQSPLSLPVTPGEPASISCTSSQSLLYSIGYNYVDWYLQKSGQSPQLLIYLGNKRASGVPDRFSGSGSGTDFTLKISRVEAEDVGFYYCMQSLTSPYTFGQGTKLEIK	0.695 relative to dupilumab
Construct 34 (mAb459) (antibody, IgG4, V domains shown, VH/VL only) VH: EVQLVESGGGLEQPGGSLRLSCAGSGFTFRDFAMTWVRQAPGKGLEWVSSISGSGDNIYYADSVKGRFTISRDNSKNTLYLQMNSLRAEDTAVYYCAKDRLSKTIRPRYYGLDVWGQGTTVTVSS VL: DIVMTQSPLSLPVTPGEPASISCRSSQGLLYSIGYNYVDWYLQKSGQSPQLLIYLGNKRASGVPDRFSGSGSGTDFTLKISRVEAEDVGFYYCMQALDTPYTFGQGTKLEIK	1.21 relative to dupilumab
Construct 38 (mAb471) (antibody, IgG4, V domains shown, VH/VL only) VH: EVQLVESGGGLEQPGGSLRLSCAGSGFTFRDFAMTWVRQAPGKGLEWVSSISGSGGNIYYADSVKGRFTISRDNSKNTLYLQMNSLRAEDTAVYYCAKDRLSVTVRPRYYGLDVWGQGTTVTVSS VL: DIVMTQSPLSLPVTPGEPASISCRSSQSLLYSIGKNYVDWYLQKSGQSPQLLIYEGNKRASGVPDRFSGSGSGTDFTLKISRVEAEDVGFYYCMQSLTSPYTFGQGTKLEIK	0.996 relative to dupilumab
Construct 4 (mAb413) (antibody, IgG4, V domains shown, VH/VL only) VH: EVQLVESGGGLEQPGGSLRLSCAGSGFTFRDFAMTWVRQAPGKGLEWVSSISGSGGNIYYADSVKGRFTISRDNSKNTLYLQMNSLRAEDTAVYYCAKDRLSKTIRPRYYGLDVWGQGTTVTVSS VL: DIVMTQSPLSLPVTPGEPASISCTASQSLLYSIGYNYVDWYLQKSGQSPQLLIYLGNNRATGVPDRFSGSGSGTDFTLKISRVEAEDVGFYYCMQALTTPYTFGQGTKLEIK	0.989 relative to dupilumab
Construct 20 (mAb428) (antibody, IgG4, V domains shown, VH/VL only) VH: EVQLVESGGGLEQPGGSLRLSCAGSGFTFRDFAMTWVRQAPGKGLEWVSSISGSGDNTYYADSVKGRFTISRDNSKNTLYLQMNSLRAEDTAVYYCAKDRLSITVRPRYYGLDVWGQGTTVTVSS VL: DIVMTQSPLSLPVTPGEPASISCTSSQSLLYSIGYNYVDWYLQKSGQSPQLLIYLGNKRASGVPDRFSGSGSGTDFTLKISRVEAEDVGFYYCMQSLQTPYVFGQGTKLEIK	1.14 relative to dupilumab
Construct 9 (mAb418) (antibody, IgG4, V domains shown, VH/VL only) VH: EVQLVESGGGLEQPGGSLRLSCAGSGFTFTDFAMTWVRQAPGKGLEWVSSISGSGGNIYYADSVKGRFTISRDNSKNTLYLQMNSLRAEDTAVYYCAKDRLSVTVRPRYYGLDVWGQGTTVTVSS VL: DIVMTQSPLSLPVTPGEPASISCRSSQSLLYSIGKNYVDWYLQKSGQSPQLLIYLGNNRATGVPDRFSGSGSGTDFTLKISRVEAEDVGFYYCMQALGSPYTFGQGTKLEIK	0.911 relative to dupilumab
Construct 12 (mAb421) (antibody, IgG4, V domains shown, VH/VL only) VH: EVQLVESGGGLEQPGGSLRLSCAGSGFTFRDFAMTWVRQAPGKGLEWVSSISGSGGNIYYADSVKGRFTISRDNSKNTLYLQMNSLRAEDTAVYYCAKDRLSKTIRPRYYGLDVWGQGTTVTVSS VL: DIVMTQSPLSLPVTPGEPASISCRSSQSVLYSIGYNYVDWYLQKSGQSPQLLIYLGNKRASGVPDRFSGSGSGTDFTLKISRVEAEDVGFYYCMQSLTSPYTFGQGTKLEIK	0.921 relative to dupilumab
Construct 15 (mAb423) (antibody, IgG4, V domains shown, VH/VL only) VH: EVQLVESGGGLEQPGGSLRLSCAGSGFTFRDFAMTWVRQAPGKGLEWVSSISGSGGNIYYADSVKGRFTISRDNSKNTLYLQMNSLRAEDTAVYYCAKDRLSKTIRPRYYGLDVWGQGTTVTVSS VL: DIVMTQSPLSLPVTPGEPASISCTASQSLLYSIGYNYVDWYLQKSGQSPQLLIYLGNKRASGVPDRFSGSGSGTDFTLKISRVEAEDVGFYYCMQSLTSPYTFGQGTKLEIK	0.876 relative to dupilumab
Construct 10 (mAb419) (antibody, IgG4, V domains shown, VH/VL only) VH: EVQLVESGGGLEQPGGSLRLSCAGSGFTFRDFAMTWVRQAPGKGLEWVSSISGDGSNTYYADSVKGRFTISRDNSKNTLYLQMNSLRAEDTAVYYCAKDRLSKTIRPRYYGLDVWGQGTTVTVSS VL: DIVMTQSPLSLPVTPGEPASISCRSSQSLLYSIGYNYVDWYLQKSGQSPQLLIYLGNKRASGVPDRFSGSGSGTDFTLKISRVEAEDVGFYYCMQALGSPYTFGQGTKLEIK	0.922 relative to dupilumab
Construct 37 (mAb470) (antibody, IgG4, V domains shown, VH/VL only) VH: EVQLVESGGGLEQPGGSLRLSCAGSGFTFRTYAMTWVRQAPGKGLEWVSSISGGGGNTYYADSVKGRFTISRDNSKNTLYLQMNSLRAEDTAVYYCAKDRLSVTVRPRYYGLDVWGQGTTVTVSS VL: DIVMTQSPLSLPVTPGEPASISCRASQSLLYSVGYNYVDWYLQKSGQSPQLLIYLGNNRASGVPDRFSGSGSGTDFTLKISRVEAEDVGFYYCMQSLTSPYTFGQGTKLEIK	1.05 relative to dupilumab
